Parameter: Phage binding ELISA signal, Anti-PSMA Fab in presence of PSMA. Scope: all listed entries.
# measured on: T1, PSMA Fab (006 PSMA Fab) (biotinylated (site not stated))
# T1 construct: also called Anti-PSMA Fab
# procedure summary: clonal phage ELISA on captured PSMA Fab, wells pre-incubated with PSMA antigen as competitor
When you answer, write just the number.

# count of solved cases: 3
YIQACKPRWMCNGF [Phage-3667 (peptide-180 library clone)] = 0.0874
EGPLCKPAWMCRGF [Phage-3663 (peptide-180 library clone)] = 0.0963
GHVYCEPQWMCYGF [Phage-3669 (peptide-180 library clone)] = 0.0791

**Q:** Tell me the measured Phage binding ELISA signal, Anti-PSMA Fab in presence of PSMA of PVPYCRPIWMCQGL [Phage-3664 (peptide-180 library clone)] , please.
**A:** 0.0736
